procedure-details: In vivo pharmacokinetic comparison study in SD rats (gavage, LC-MS/MS plasma concentration)
condition-parameters: SD (Sprague-Dawley), rat, plasma, po; female rats, gavage 10 mg/kg suspension; read-out: area under the curve AUC0-t
Quick list: AUC(0-t) per entry.
readout: AUC(0-t) (ng·h/mL)

molecule="CCOc1cc(C(CS(C)(=O)=O)N2C(=O)c3cccc(NC(C)=O)c3C2=O)ccc1OC (single isomer, unassigned; (+)) [Form II]" unit_symbol=ng·h/mL measured_number=10600
molecule="CCOc1cc([C@@H](CS(C)(=O)=O)N2C(=O)c3cccc(NC(C)=O)c3C2=O)ccc1OC [Form B]" unit_symbol=ng·h/mL measured_number=7000
